System: S. aureus/MRSA strains
method: MIC by broth microdilution, S. aureus/MRSA strains
Assay type: cell-based, Staphylococcus aureus
measurementConditions: Staphylococcus aureus, MRSA, S. aureus/MRSA strains tested, strain not singled out; read-out: MIC
quantityMeasured: MIC (µg/mL)

P = CCCCCCCCCC#Cc1cncc(O)c1 [JC-01-072]
Q = CCCCCCCCCC#Cc1cccc(O)n1 [JC-01-074]
R = CCCCCCCCCC#Cc1cc(O)ccn1 [EA-02-011]
Query block: Sort the compounds on MIC; start with the lowest figure. Give the labels in the order specified.
Result block: P, Q, R
(P: 4 µg/mL, Q: 16 µg/mL, R: 32 µg/mL)

Data provenance is paper PMC11428593.
